Origin of the recorded values: patent US20250122160A1

In what follows, each item is paired with its IC50 for His tagged full-length PTPN1 protein (Homo sapiens, UniProt P18031).

compound="C[C@@H](O)CCN[C@@H]1CCc2cc(O)c(N3CC(=O)NS3(=O)=O)c(F)c2C1 (single isomer, unassigned)" target_desc="His tagged full-length PTPN1 protein (Homo sapiens, UniProt P18031)" result_value="1 to 10 nM"
compound=O=C1CN(c2c(O)cc3c(c2F)CN(C(=O)NCC2COC2)CC3)S(=O)(=O)N1 target_desc="His tagged full-length PTPN1 protein (Homo sapiens, UniProt P18031)" result_value="> 100 nM"
compound=CCOCCCN[C@@H]1CCc2cc(O)c(N3CC(=O)NS3(=O)=O)c(F)c2C1 target_desc="His tagged full-length PTPN1 protein (Homo sapiens, UniProt P18031)" result_value="10 to 100 nM"

O=C1CN(c2c(O)cc3c(c2F)C[C@H](NCCCC(F)F)CC3)S(=O)(=O)N1 (single isomer, unassigned) has a reported IC50 of < 1 nM

CC(C)CCC(=O)N1CCc2cc(O)c(N3CC(=O)NS3(=O)=O)c(F)c2C1 has a reported IC50 of 10 to 100 nM

O=C1CN(c2c(O)cc3c(c2F)C[C@H](NCCC2CCOC2)CC3)S(=O)(=O)N1 (stereo partly shown) has a reported IC50 of 1 to 10 nM

O=C1CN(c2c(O)cc3c(c2F)C[C@H](NCCC2CC2)CC3)S(=O)(=O)N1 (single isomer, unassigned) has a reported IC50 of 1 to 10 nM

O=C1CN(c2c(O)cc3c(c2F)CN(CCCCC(F)(F)F)CC3)S(=O)(=O)N1 has a reported IC50 of 10 to 100 nM

CC(C)CCN[C@@H]1COc2cc(O)c(N3CC(=O)NS3(=O)=O)c(F)c2C1 has a reported IC50 of 10 to 100 nM

O=C1CN(c2c(O)cc3c(c2F)CC(NCCC2COC2)CC3)S(=O)(=O)N1 (stereo not shown) has a reported IC50 of > 100 nM
